Assay: in vivo
Design: species or system male Sprague-Dawley rats
Conditions: male, Sprague-Dawley, rat, sc, 1.62 mg/kg, Cmax of Compound 2, Mean ± SD
Description: This Example compares the pharmacokinetics of capsaicin from either capsaicin or from Compound 1 (with or without co-administered bupivacaine or bupivacaine with epinephrine) administered subcutaneously (SC) to rats. […] The concentrations of the two main analytes in rat blood mixed 1:1 (v/v) with 2% formic acid were determined simultaneously using a qualified LC-MS/MS assay. […]
experimentalReadout: Cmax (ng/mL)

{"compound": "CN1CC2CCCCN2C1=O (stereo not shown)", "recordedNumber": 226}

* * *

Experiment: in vivo
Design: species or system male Sprague-Dawley rats
Settings: male, Sprague-Dawley, rat, sc, 1.62 mg/kg, Cmax of Compound 2, Median
experimentalReadout: Cmax (ng/mL)

{"molecule": "CN1CC2CCCCN2C1=O (stereo not shown)", "experimentalReadout": "Cmax", "recordedNumber": 226}
